- Tested on: colon cancer cell strain SW480
- ASSAY NOTES: In-vitro tumor cell proliferation inhibition, MTT
- Assay type: cell-based, human
- TEST CONDITIONS: 72 hours
pIC50: −log10 of the molar value.
pIC50 reference
OBSERVED PROPERTY: pIC50

{"SMILES STR": "CCN1CCN(Cc2ccc(Nc3ncc4nc(Nc5ccccc5)n(C5CCCC5)c4n3)cc2)CC1", "MODIFIER SIGN": "=", "RESULT VALUE": 5.32}
{"SMILES STR": "CN1CCN(c2ccc(Nc3ncc4nc(Nc5cccc(O)c5)n(C5CCCC5)c4n3)cc2)CC1", "MODIFIER SIGN": "=", "RESULT VALUE": 5.17}
{"SMILES STR": "CN1CCN(c2ccc(Nc3ncc4nc(Nc5cccc([N+](=O)[O-])c5)n(C5CCCC5)c4n3)cc2)CC1", "MODIFIER SIGN": "=", "RESULT VALUE": 5.21}
{"SMILES STR": "CC(C)n1c(Nc2ccc(NC(=O)Nc3ccc(F)c(Cl)c3)cc2)nc2cnc(Nc3ccc(N4CCN(C)CC4)cc3)nc21", "MODIFIER SIGN": "<", "RESULT VALUE": 5.00}
{"SMILES STR": "CN1CCN(c2ccc(Nc3ncc4nc(Nc5ccccc5)n(C5CCCCC5)c4n3)cc2)CC1", "MODIFIER SIGN": "=", "RESULT VALUE": 5.57}
{"SMILES STR": "C#Cc1cccc(Nc2nc3cnc(Nc4ccc(N5CCN(C)CC5)cc4)nc3n2C(C)C)c1", "MODIFIER SIGN": "<", "RESULT VALUE": 5.00}
{"SMILES STR": "CN1CCN(NC(=O)c2ccc(Nc3ncc4nc(Nc5cccnc5)n(C5CCCC5)c4n3)cc2)CC1", "MODIFIER SIGN": "<", "RESULT VALUE": 5.00}
{"SMILES STR": "C=CC(=O)Nc1cccc(Nc2ncc3nc(Nc4ccccc4)n(C(C)C)c3n2)c1", "MODIFIER SIGN": "<", "RESULT VALUE": 5.00}
{"SMILES STR": "Cc1nc(Nc2ccc(N3CCN(C)CC3)cc2)nc2c1nc(Nc1ccccc1)n2C(C)C", "MODIFIER SIGN": "=", "RESULT VALUE": 5.00}
{"SMILES STR": "CC(C)n1c(NC2CCCCC2)nc2cnc(Nc3ccc(N4CCN(C)CC4)cc3)nc21", "MODIFIER SIGN": "<", "RESULT VALUE": 5.00}
{"SMILES STR": "CC(C)n1c(Nc2ccc(C(F)(F)F)cc2)nc2cnc(Nc3ccc(N4CCN(C)CC4)cc3)nc21", "MODIFIER SIGN": "=", "RESULT VALUE": 5.59}
{"SMILES STR": "COc1ccc(Nc2nc3cnc(Nc4ccc(N5CCN(C)CC5)cc4)nc3n2C(C)C)cc1", "MODIFIER SIGN": "<", "RESULT VALUE": 5.00}
{"SMILES STR": "CN1CCN(c2ccc(Nc3ncc4nc(Nc5cccc(F)c5)n(C5CCCC5)c4n3)cc2)CC1", "MODIFIER SIGN": "=", "RESULT VALUE": 5.30}
{"SMILES STR": "COc1cccc(Nc2nc3cnc(Nc4ccc(N5CCN(C)CC5)cc4)nc3n2C(C)C)c1", "MODIFIER SIGN": "<", "RESULT VALUE": 5.00}
{"SMILES STR": "CN1CCN(c2ccc(Nc3ncc4nc(Nc5ccc(F)c(Cl)c5)n(C5CCCC5)c4n3)cc2)CC1", "MODIFIER SIGN": "=", "RESULT VALUE": 5.23}
